# assay: Cytotoxicity against human HL60 cells assessed as reduction in cell number
# Assay type: functional, cell-based
# settings: HL-60
Please go through the items and note down their IC50.

Qu. // IC50 lookup, key: COc1cc(CCc2cc(O)c(OC)c(OC)c2)ccc1O
Ans. 24.3 µM

Qu. Param item: COc1cc(CCc2cc(O)c(Cc3c(CCc4ccc(O)c(OC)c4)cc(O)cc3OC)c(OC)c2)ccc1O
Ans. 15.8 µM

Qu. Same again, this time with COc1cc(O)c(Cc2c(O)cc(OC)cc2CCc2ccc(O)c(OC)c2)c(CCc2ccc(O)c(OC)c2)c1
Ans. 19.1 µM

Qu. Same for COc1cc(CCc2cc(O)cc(OC)c2Cc2c(CCc3ccc(O)c(OC)c3)cc(O)cc2OC)ccc1O
Ans. 13.9 µM

Qu. Subsequent entry: COc1cc(O)c(Cc2c(CCc3ccc(O)c(OC)c3)cc(O)cc2OC)c(CCc2ccc(O)c(OC)c2)c1
Ans. 16.8 µM

---

# Test system: SMMC-7721
# assay: Cytotoxicity against human SMMC7721 cells assessed as reduction in cell number
# Assay type: functional, cell-based
quantityKind: pIC50
Give only the number. pIC50 is defined as minus log10 of concentration in molar units.

Qu. Which value of pIC50 has been reported for COc1ccc(CCc2cc(OC)c(O)c(OC)c2)cc1O in the records?
Ans. 5.00

Qu. One more compound: COc1cc(CCc2cc(O)c(Cc3c(CCc4ccc(O)c(OC)c4)cc(O)cc3OC)c(OC)c2)ccc1O
Ans. 4.78

Qu. Input COc1cc(O)c(Cc2c(CCc3ccc(O)c(OC)c3)cc(O)cc2OC)c(CCc2ccc(O)c(OC)c2)c1
Ans. 4.72

Qu. Another compound to look at: COc1cc(O)c(Cc2c(O)cc(OC)cc2CCc2ccc(O)c(OC)c2)c(CCc2ccc(O)c(OC)c2)c1
Ans. 4.76

Qu. Queued: COc1cc(O)c(Cc2c(O)cc(CCc3ccc(O)c(OC)c3)cc2OC)c(CCc2ccc(O)c(OC)c2)c1
Ans. 4.74

Qu. And then COc1cc(CCc2cc(OC)c(O)c(OC)c2)ccc1O , what is it?
Ans. 5.39

Qu. Try this compound next: COc1cc(CCc2cc(O)cc(OC)c2Cc2c(CCc3ccc(O)c(OC)c3)cc(O)cc2OC)ccc1O
Ans. 4.77

---

For each entry below, report its pIC50 value.
# assay: Cytotoxicity against human HL60 cells assessed as reduction in cell number
# Type: functional, cell-based
# settings: HL-60
# pIC50 = -log10(concentration in molar units)

Qu. Find the recorded pIC50 belonging to COc1ccc(CCc2cc(OC)c(O)c(OC)c2)cc1O and report it.
Ans. 5.53

Qu. // same read-out, input: COc1cc(O)c(Cc2c(O)cc(CCc3ccc(O)c(OC)c3)cc2OC)c(CCc2ccc(O)c(OC)c2)c1
Ans. 4.79

Qu. Likewise for COc1cc(CCc2cc(OC)c(O)c(OC)c2)ccc1O ?
Ans. 5.66

Qu. Record: COc1cc(CCc2cc(O)c(Cc3c(CCc4cccc(O)c4)cc(O)cc3OC)c(OC)c2)ccc1O
Ans. 4.65

These data points were gathered from ChEMBL document CHEMBL3352806.
